# target_under_test: Androgen receptor (Homo sapiens) (UniProt P10275)
# Sequence (whole entry): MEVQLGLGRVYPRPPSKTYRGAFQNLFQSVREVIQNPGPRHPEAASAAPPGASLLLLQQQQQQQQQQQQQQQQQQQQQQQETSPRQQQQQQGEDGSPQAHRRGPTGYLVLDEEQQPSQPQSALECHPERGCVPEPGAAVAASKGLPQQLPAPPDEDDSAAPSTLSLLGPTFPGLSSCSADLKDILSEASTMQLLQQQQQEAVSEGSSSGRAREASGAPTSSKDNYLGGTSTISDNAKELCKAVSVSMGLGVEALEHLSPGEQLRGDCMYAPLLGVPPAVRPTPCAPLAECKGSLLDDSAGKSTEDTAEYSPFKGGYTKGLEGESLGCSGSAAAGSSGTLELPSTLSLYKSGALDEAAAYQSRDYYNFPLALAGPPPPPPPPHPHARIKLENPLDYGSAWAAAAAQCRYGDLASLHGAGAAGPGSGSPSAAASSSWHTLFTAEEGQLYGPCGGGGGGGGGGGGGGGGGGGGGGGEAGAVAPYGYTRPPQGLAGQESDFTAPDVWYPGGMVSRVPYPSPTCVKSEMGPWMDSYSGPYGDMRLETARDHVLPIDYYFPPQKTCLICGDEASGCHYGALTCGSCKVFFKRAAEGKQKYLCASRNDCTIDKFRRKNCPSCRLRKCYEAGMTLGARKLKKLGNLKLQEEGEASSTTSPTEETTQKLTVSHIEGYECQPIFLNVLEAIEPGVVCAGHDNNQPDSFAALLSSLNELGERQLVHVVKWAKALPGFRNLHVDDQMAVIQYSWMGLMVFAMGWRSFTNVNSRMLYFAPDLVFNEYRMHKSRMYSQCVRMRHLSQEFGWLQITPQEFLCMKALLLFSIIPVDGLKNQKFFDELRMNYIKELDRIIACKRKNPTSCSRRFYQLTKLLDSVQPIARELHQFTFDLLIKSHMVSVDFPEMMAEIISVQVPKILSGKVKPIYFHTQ
# experiment_description: Inhibition of AR signaling pathway in testosterone-stimulated human LNCAP cells assessed as cell growth inhibition at 100 uM after 6 days by MTT assay relative to control
The source made the active and inactive calls. The calls are words filed in the database; no cut-off is given here.
readout_kind: inhibition

Please review the entries below; each comes with its answer.
| compound | readout_kind | result |
| --- | --- | --- |
| N#Cc1ccc(NC(=O)COC(=O)Cc2ccc(Cl)c(Cl)c2)cc1 | inhibition | inactive |
| O=C(CSc1ncnc2c1[nH]c1ccccc12)Nc1ccc(F)cc1 | inhibition | inactive |
| O=C(CSc1ncnc2c1[nH]c1ccccc12)Nc1cccc(F)c1 | inhibition | inactive |
| CC(OC(=O)Cc1cc2c(s1)CCC2)C(=O)Nc1ccc(C#N)cc1 (stereo unspecified) | inhibition | inactive |
| Cc1cc(NC(=O)N2CCN(c3ccc(C#N)cc3F)CC2)on1 | inhibition | inactive |
| CC1CCCN(C(=O)C2CCN(c3ccc(C#N)cc3F)CC2)C1 (stereo unspecified) | inhibition | inactive |
| N#Cc1ccc(CN2CCN(C(=O)C3CCCC3)CC2)c(F)c1 | inhibition | inactive |
| CC(C(=O)Nc1ccc(C#N)cc1)N1CCN(c2ccc(O)cc2)CC1 (stereo unspecified) | inhibition | inactive |
| N#Cc1ccc(CN2CCN(C(=O)c3ccc(F)c(F)c3)CC2)cc1 | inhibition | inactive |
| N#Cc1ccc(C(=O)N2CCN(c3ccc(F)cc3)CC2)c(F)c1 | inhibition | inactive |

Next compound, please.
Please indicate recorded inhibition of N#Cc1cc(F)c(N2CCN(C(=O)c3ccsc3)CC2)c(F)c1 measured with Androgen receptor (Homo sapiens) (UniProt P10275).
inactive
